target: α4β2γ2 GABAA receptor (Homo sapiens, UniProt P18507+P48169); assay: Radioligand binding (McKernan and Atack), α4β2γ2; conditions: Table 3; αxβ2γ2; means of two determinations; read-out: Binding affinity α4
test.readout: Ki

Q: For C#Cc1ccc2c(c1)C(c1ccccc1)=N[C@H](C)c1c(C(=O)OCC)ncn1-2 , write its Ki.
A: > 5 µM

Q: For C#Cc1ccc2c(c1)C(c1ccccc1F)=N[C@H](C)c1c(C(=O)OCC)ncn1-2 , write its Ki.
A: > 5 µM

Q: For C#Cc1ccc2c(c1)C(c1ccccc1)=N[C@@H](C)c1c(C(=O)OCC)ncn1-2 , write its Ki.
A: > 5 µM

====

Can you tell me log10 Ki for the items I'm about to list?
biological target: α6β3γ2 GABAA/BzR (Homo sapiens, UniProt P18507+Q16445); experiment: Competition binding to HEK cell membranes, α6β3γ2; design: expressed in transfected cells; conditions: read-out: Ki α6
log10 Ki, µM

Q: For COc1ccc(-n2nc3c4ccc(OC)cc4[nH]cc-3c2=O)cc1 , write its log10 Ki.
A: -2.00

Q: For C[Si](C)(C)C#Cc1ccc2c(c1)C(=O)N1CCC[C@H]1c1c(C(=O)OCC(F)(F)F)ncn1-2 , write its log10 Ki.
A: -2.40

Q: For COc1ccc2c(c1)C(=O)N1CCC[C@H]1c1c(C(=O)OCc3ccccc3)ncn1-2 , write its log10 Ki.
A: -1.02

Q: For CCOC(=O)c1ncn2c1C1CCN1C(=O)c1cc(OC)ccc1-2 (stereo not drawn) , write its log10 Ki.
A: -3.04

Q: For O=C(OCC(F)(F)F)c1ncn2c1C1CCCN1C(=O)c1cc(Br)ccc1-2 (stereo not drawn) , write its log10 Ki.
A: -1.64

Q: For O=C(OCC(F)(F)F)c1cc2c(cn1)[nH]c1ccc(-c3cccs3)cc12 , write its log10 Ki.
A: 0.30

====

target: α5β3γ2 GABAA/BzR (Homo sapiens, UniProt P18507+P31644); assay: Competition binding to HEK cell membranes, α5β3γ2; design: expressed in transfected cells; conditions: read-out: Ki α5
pKi: −log10 of the molar value.
pKi below 8 gives rule not met; pKi at or above it gives rule met.

Q: Item CC[C@@H](C)OC(=O)c1cc2c(cn1)[nH]c1ccccc12 [CM-A49 (R)] with pKi of 8 or above?
A: rule not met

Q: Item CCC(C)OC(=O)c1cc2c(cn1)[nH]c1ccccc12 (centres unmarked) with pKi of 8 or above?
A: rule not met

Q: Item C#Cc1ccc2c(c1)C(c1ccccc1F)=NCC(=O)N2 [JYI-60] with pKi of 8 or above?
A: rule met

====

target: α2β3γ2 GABAA/BzR (Homo sapiens, UniProt P18507+P47869); assay: Competition binding to HEK cell membranes, α2β3γ2; parameters: expressed in transfected cells; conditions: read-out: Ki α2
Can you tell me Ki for the items I'm about to list?
State just the number; it will be interpreted in nM.

Q: For CCOC(=O)c1cc2c(cn1)[nH]c1ccc(C#C[Si](C)(C)C)cc12 , write its Ki.
A: 4.5

Q: For O=C(OC(C(F)(F)F)C(F)(F)F)c1ncn2c1C1CCCN1C(=O)c1ccccc1-2 (stereo not shown) [MMB-III-18] , write its Ki.
A: 140

Q: For COc1ccc2c(c1)C(=O)N1CCC[C@H]1c1c(C(=O)OCc3ccccc3)ncn1-2 , write its Ki.
A: 26

Q: For CCC(OC(=O)c1ncn2c1C1CCCN1C(=O)c1cc(Cl)ccc1-2)C(F)(F)F (mixture of isomers) , write its Ki.
A: 557

====

target: α5β3γ2 GABAA/BzR (Homo sapiens, UniProt P18507+P31644); test: Competition binding to HEK cell membranes, α5β3γ2; design: expressed in transfected cells; details: read-out: Ki α5
Can you tell me Ki for the items I'm about to list?
State just the number; it will be interpreted in nM.

Q: For C#Cc1ccc2c(c1)C(=O)N1CCC[C@H]1c1c(C(=O)OCC(F)(F)F)ncn1-2 [JYI-15] , write its Ki.
A: 4.8

Q: For CCC(OC(=O)c1ncn2c1C1CCCN1C(=O)c1cc(Br)ccc1-2)C(F)(F)F (stereo not drawn) [MMB-II-87] , write its Ki.
A: 5.4

Q: For COc1ccc2c(c1)C(=O)N1CCCC1c1c(C(=O)OC(C)C)ncn1-2 (stereo not drawn) [CM-E09b] , write its Ki.
A: 0.45

Q: For CC(C)(C)OC(=O)c1cc2c(cn1)[nH]c1ccc(C(C)(C)C)cc12 [CM-A82a] , write its Ki.
A: 7.49

Q: For CC(C)(C)OC(=O)c1ncn2c1[C@@H]1CCCN1C(=O)c1cc(-c3cccs3)ccc1-2 [JYI-19] , write its Ki.
A: 34

Q: For CN1Cc2c(C(=O)OC(C)(C)C)ncn2-c2ccc(C#C[Si](C)(C)C)cc2C1=O [RY-023 C22H27N3O3Si] , write its Ki.
A: 2.61

Q: For C#Cc1ccc2c(c1)C(c1ccccc1F)=NCC(=O)N2C [OMB-18] , write its Ki.
A: 0.8

Q: For COc1ccc2c(c1)C(=O)N1CCCC1c1c(C(=O)OCC(C)C)ncn1-2 (stereo not drawn) [CM-E11] , write its Ki.
A: 14

Q: For C#Cc1ccc2c(c1)C(c1ccccc1F)=NCC(=O)N2 [JYI-60 (C17H11N2OF)] , write its Ki.
A: 1.7

====

molecular target: α3β3γ2 GABAA/BzR (Homo sapiens, UniProt P18507+P34903); experiment: Competition binding to HEK cell membranes, α3β3γ2; design: expressed in transfected cells; conditions: read-out: Ki α3
test.readout: Ki (nM)
State just the number; it will be interpreted in nM.

Q: Write down the reported Ki (system: α3β3γ2 GABAA/BzR (Homo sapiens, UniProt P18507+P34903)) of c1ccc2c(c1)[nH]c1cnc3c4cccnc4[nH]c3c12 [LJD-III-15E]
A: 19

Q: Write down the reported Ki (system: α3β3γ2 GABAA/BzR (Homo sapiens, UniProt P18507+P34903)) of CCCCc1cc2c(cn1)[nH]c1ccc(F)cc12
A: 184

Q: Write down the reported Ki (system: α3β3γ2 GABAA/BzR (Homo sapiens, UniProt P18507+P34903)) of Cc1nnc2n1-c1ccc(Br)cc1C(c1ccccc1Cl)=NC2 [DM-II-90 (C17H12N4BrCl)]
A: 0.63

Q: Write down the reported Ki (system: α3β3γ2 GABAA/BzR (Homo sapiens, UniProt P18507+P34903)) of CCC(OC(=O)c1ncn2c1C1CCCN1C(=O)c1cc(Br)ccc1-2)C(F)(F)F (mixture of isomers) [CM-B34]
A: 223

Q: Write down the reported Ki (system: α3β3γ2 GABAA/BzR (Homo sapiens, UniProt P18507+P34903)) of COc1ccc2c(c1)C(=O)N1CCCC1c1c(C(=O)OCC(C)C)ncn1-2 (centres unmarked)
A: 161

Q: Write down the reported Ki (system: α3β3γ2 GABAA/BzR (Homo sapiens, UniProt P18507+P34903)) of CN1Cc2c(C(=O)OC(C)(C)C)ncn2-c2ccc(C#C[Si](C)(C)C)cc2C1=O
A: 255

Q: Write down the reported Ki (system: α3β3γ2 GABAA/BzR (Homo sapiens, UniProt P18507+P34903)) of C#Cc1ccc2c(c1)C(c1cccs1)=NCc1c(C(=O)OCC)ncn1-2
A: 182

Q: Write down the reported Ki (system: α3β3γ2 GABAA/BzR (Homo sapiens, UniProt P18507+P34903)) of CCCC(=O)c1cc2c(cn1)[nH]c1ccc(F)cc12
A: 40

Q: Write down the reported Ki (system: α3β3γ2 GABAA/BzR (Homo sapiens, UniProt P18507+P34903)) of CC(OC(=O)c1ncn2c1C1CCCN1C(=O)c1ccccc1-2)C(F)(F)F (centres unmarked)
A: 6.9

Q: Write down the reported Ki (system: α3β3γ2 GABAA/BzR (Homo sapiens, UniProt P18507+P34903)) of C#Cc1ccc2[nH]c3cnc(C(=O)OC(C)(C)C)cc3c2c1
A: 1.63

Q: Write down the reported Ki (system: α3β3γ2 GABAA/BzR (Homo sapiens, UniProt P18507+P34903)) of CC(C)(C)OC(=O)c1cc2c(cn1)[nH]c1ccccc12
A: 0.035

Q: Write down the reported Ki (system: α3β3γ2 GABAA/BzR (Homo sapiens, UniProt P18507+P34903)) of CCOC(=O)c1ncc2[nH]c3cc(OC)c(OC)cc3c2c1CC
A: 4

Q: Write down the reported Ki (system: α3β3γ2 GABAA/BzR (Homo sapiens, UniProt P18507+P34903)) of CC(C)(C)OC(=O)c1cc2c(cn1)[nH]c1ccc(C(C)(C)C)cc12 [CM-A82a]
A: 24.5

Q: Write down the reported Ki (system: α3β3γ2 GABAA/BzR (Homo sapiens, UniProt P18507+P34903)) of CC(C)(C)OC(=O)c1ncn2c1C1CCCN1C(=O)c1cc(Br)ccc1-2 (centres unmarked)
A: 96

Q: Write down the reported Ki (system: α3β3γ2 GABAA/BzR (Homo sapiens, UniProt P18507+P34903)) of CN1CCN(C=C2N=C3CN=C(c4ccccc4)c4cc(Br)ccc4N3C2=O)CC1
A: 24.4

Q: Write down the reported Ki (system: α3β3γ2 GABAA/BzR (Homo sapiens, UniProt P18507+P34903)) of CCOc1cc2c(cn1)[nH]c1ccccc12
A: 28.2

Q: Write down the reported Ki (system: α3β3γ2 GABAA/BzR (Homo sapiens, UniProt P18507+P34903)) of COCc1ncn2c1CN(C)C(=O)c1cc(Cl)ccc1-2
A: 328

Q: Write down the reported Ki (system: α3β3γ2 GABAA/BzR (Homo sapiens, UniProt P18507+P34903)) of O=C(OCC(Cl)(Cl)Cl)c1ncn2c1CN=C(c1ccccc1)c1cc(Br)ccc1-2
A: 11.6

Q: Write down the reported Ki (system: α3β3γ2 GABAA/BzR (Homo sapiens, UniProt P18507+P34903)) of CCOC(=O)c1ncn2c1C1CCN1C(=O)c1cc(OC)ccc1-2 (centres unmarked)
A: 20.7

Q: Write down the reported Ki (system: α3β3γ2 GABAA/BzR (Homo sapiens, UniProt P18507+P34903)) of CC[C@@H](C)OC(=O)c1cc2c(cn1)[nH]c1ccccc12 [CM-A49 (R)]
A: 43
